Molecular target: Glucose transporter (Leishmania mexicana)
Experiment: ST_JUDE_LEISH: Cytotoxicity at 2uM final concentration against transgenic Leishmania Mexicana promastigotes LmGT2 that are glucose transport deficient and complemented with the L. Mexicana glucose transporter 2. Activity is measured by DNA content using SYBR green in vitro
Type: functional
Metric name: inhibition (%)

COc1ccc(CN2CCC(CNC(C)c3cccc4ccccc34)CC2)cc1 (stereo not given) :: 5.96
CN1CCCN(c2ccnc3cc4c(cc23)N(C(=O)c2ccc(Cl)cc2Cl)CC4)CC1 :: 0.94
O=C(c1cc(C(=O)Nc2ccc(F)cc2)c(=O)n(-c2ccc(F)cc2)c1)c1cc(Cl)ccc1O :: 0.22
CC1(C)N=C(N)N=C(Nc2ccc(Cl)cc2)N1 :: 11.4
CSc1ccc2ccccc2c1CNCCCCCCNCc1c(SC)ccc2ccccc12 :: 1.41
COCCOCCOCCn1ccc2c3c(N)nc(N)nc3ccc21 :: 2.29
CNc1ccc(CNCc2ccc(-c3ccc(-c4nc5cc(C(F)(F)F)ccc5[nH]4)cc3)cc2)cc1 :: 9.71
Fc1ccc2[nH]c(-c3cccc(-c4cccc(CN5CCN(c6cnccn6)CC5)c4)c3)nc2c1 :: 4.27
Cn1nccc1C(=O)NCCNCc1ccc(-c2ccc(-c3nc4cc(F)ccc4[nH]3)cc2)cc1 :: 5.68
Cc1ccc(C)c(NC(=O)NC2CCN(c3ccnc(Nc4ccc(F)cc4)n3)C2)c1 (stereo not given) :: -1.79
COc1ccc(NS(=O)(=O)c2ccc(Oc3nc(C)nc4sc5c(c34)CCCC5)cc2)cc1 :: 2.29
O=C(C1CC1c1ccccc1)N(Cc1ccc(-c2ccc(CNCCc3ccccc3)cc2)cc1)C1CCNCC1 (stereo not given) :: 9.97
CCc1ccc(-c2nc3cc(NC(=O)c4cc([N+](=O)[O-])cc([N+](=O)[O-])c4)ccc3o2)cc1 :: 2.3
CC(C)CCNC(=N)c1ccc(OCCCCCOc2ccc(C(=N)NCCC(C)C)cc2)cc1 :: 8.15
Cc1cc(NC(=O)Nc2ccc(C#N)cc2)c2ccccc2n1 :: 0.95
C[C@@H]1CN(C(c2cccc(O)c2)c2cccc(C(=O)N(C)c3cccc(F)c3)c2)[C@@H](C)CN1C(c1cccc(O)c1)c1cccc(C(=O)N(C)c2cccc(F)c2)c1 (stereo not given in full) :: 2.45
NOCCCOc1ccccc1 :: 0.73
FC(F)(F)c1cnc(Sc2nnc(-c3ccco3)o2)c(Cl)c1 :: 11.8
COc1ccc(-c2cnc(N)nc2N)cc1Cl :: 2.06
CCOC(=O)c1c(C)n(-c2ccccc2)c2ccc(O)cc12 :: 0.95
CC(C)Oc1cc2c(cc1NS(=O)(=O)c1ccc(-c3ccc(Cl)cc3)cc1)CCN(C)CC2 :: 4.31
Cn1nc(-c2ccc(NC(=O)Nc3ccc4ccccc4c3)c(F)c2)c2cnc(NCCN3CCOCC3)nc21 :: 1.17
CCn1c(C(C)C)cc2c3c(N)nc(N)nc3ccc21 :: 42
O=C(/C=C/c1ccc(Cl)c(Cl)c1)NCCCCCCN1CCN(C(=O)Nc2cccc(Cl)c2)CC1 :: 3.02
CCCNCc1ccc(-c2ccc(CN(C(=O)c3nn(-c4ccccc4)nc3C)C3CCOCC3)cc2)nc1 :: -1.66
C#CCOc1ccc(N2C(N)=NC(N)=NC2(C)C)cc1 :: -0.42
COc1ccccc1CCNc1nc(C)cc(N[C@@H](CC(C)C)C(=O)NCc2cccc(F)c2)n1 :: 8.86
OC(Cn1ccnc1)(c1ccc(Cl)cc1Cl)C1CCCCC1 (stereo not given) :: -0.69
O=S(=O)(NCCN1CCCC1)c1cccc(-c2ccc(CNC3Cc4ccccc4C3)cc2)c1 :: 8.14
Cc1cc(Oc2ccc(-n3ccnc3)cc2)nc(N2CCN(CCCN3CCCC3)CC2)n1 :: 2.69
CC=CCON1C(=N)NC(=N)NC1(C)C :: 1.8
CCn1c(-c2nc(-c3ccc4c(c3)OCO4)cnc2N)nc2cnccc21 :: 13.5
COc1cccc(CNC[C@@H](O)[C@H](Cc2ccccc2)NC(=O)c2cc(NC(C)C)cc(N3CCCCS3(=O)=O)c2)c1 :: 0.68
Fc1ccc2[nH]c(-c3ccc(-c4cccc(CN5CCN(c6ccncc6)CC5)c4)cc3)nc2c1 :: 4.07
O=C(Nc1ccc(Oc2cccnc2)cc1)C1CCN(Cc2cc(Cl)ccc2O)CC1 :: 1.47
Cc1nc2ccccn2c1C1(O)C(=O)Nc2c(Cl)cc(Cl)cc21 (stereo not given) :: 2.71
O=C(Nc1cccc(Cl)c1)N(CCCn1ccnc1)Cc1csc(-c2ccc(CNCc3ccccc3)cc2)n1 :: 4.27
OCCC1CCN(Cc2ccc(-c3ccc(-c4nc5ccccc5[nH]4)cc3)cc2)CC1 :: 5.76
Cc1ccc(CN2CCN(CC(O)COc3ccc4c(c3)CCC4)CC2)cc1 (stereo not given) :: -0.29
COc1cccc(OC(C)(C)c2nc(N[C@@H](C)c3ccccc3)c3cn[nH]c3n2)c1 :: -1.65
